The origin of these recorded values is ChEMBL document CHEMBL1909046.

Test: DRUGMATRIX: Glutamate, NMDA, Phencyclidine radioligand binding (ligand: [3H] TCP)
Assay type: cell membranes, Rattus norvegicus, Wistar, Cerebral cortex, Membrane
Conditions: Not Active = under 50% inhibition at 10 µM
property-label: IC50

compound: CC(C)NCC(O)COc1cccc2[nH]ccc12 (stereo not drawn) [PINDOLOL]
measurement: Not Active

compound: CC(=O)[C@H]1[C@H](C#N)C[C@H]2[C@@H]3CC=C4C[C@@H](O)CC[C@]4(C)[C@H]3CC[C@@]21C [PREGNENOLONE CARBONITRILE]
measurement: Not Active

compound: CC(C)=CCC/C(C)=C/CO [GERANIOL]
measurement: Not Active

compound: C#C[C@]1(OC(C)=O)CC[C@H]2[C@@H]3CCC4=C[C@@H](OC(C)=O)CC[C@@H]4[C@H]3CC[C@@]21C [ETHYNODIOL DIACETATE]
measurement: Not Active

compound: O=C(O)c1cn(-c2ccc(F)cc2)c2cc(N3CCNCC3)c(F)cc2c1=O [SARAFLOXACIN]
measurement: Not Active

compound: COc1ccc2cc3[n+](cc2c1OC)CCc1cc2c(cc1-3)OCO2.[Cl-] [BERBERINE CHLORIDE]
measurement: Not Active

compound: CC[C@H]1CN2CCc3cc(OC)c(OC)cc3[C@@H]2C[C@@H]1C[C@H]1NCCc2cc(OC)c(OC)cc21 [EMETINE]
measurement: Not Active

Okay, now this compound:
Notebook: CCCN(CCC)S(=O)(=O)c1ccc(C(=O)O)cc1 [PROBENECID] , IC50 read as Not Active

###

Target: UniProt:P18825
Sequence (P18825 whole entry): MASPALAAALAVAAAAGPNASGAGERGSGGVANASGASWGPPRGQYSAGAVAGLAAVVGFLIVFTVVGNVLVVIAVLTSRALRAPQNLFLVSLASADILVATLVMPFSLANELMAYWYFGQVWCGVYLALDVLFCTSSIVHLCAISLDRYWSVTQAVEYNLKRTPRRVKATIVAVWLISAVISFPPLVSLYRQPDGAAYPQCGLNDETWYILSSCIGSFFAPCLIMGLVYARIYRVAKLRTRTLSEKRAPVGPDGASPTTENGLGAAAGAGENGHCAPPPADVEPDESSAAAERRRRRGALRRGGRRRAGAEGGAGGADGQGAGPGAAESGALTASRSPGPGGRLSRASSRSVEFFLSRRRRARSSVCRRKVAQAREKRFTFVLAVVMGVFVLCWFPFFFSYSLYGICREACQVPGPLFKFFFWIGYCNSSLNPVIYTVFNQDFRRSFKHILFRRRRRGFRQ
Assay: DRUGMATRIX: Adrenergic Alpha-2C radioligand binding (ligand: [3H] MK-912)
Type: cell membranes, Sf9, Membrane
Conditions: sf9

compound: CN/C(=N\CCSCc1nc[nH]c1C)NC#N
IC50: Not Active

compound: CNCCC(Oc1ccc(C(F)(F)F)cc1)c1ccccc1 (stereo not drawn)
IC50: Not Active

compound: O=C(N/N=C/c1ccc([N+](=O)[O-])o1)c1cc([N+](=O)[O-])cc([N+](=O)[O-])c1O
IC50: Not Active

###

Test: DRUGMATRIX: Interleukin IL-1 radioligand binding (ligand: [125I] interleukin 1beta)
Type: cell membranes, Membrane
Conditions: nih3t3; Not Active = under 50% inhibition at 10 µM
property-label: IC50

compound: Cn1c(=O)c2[nH]cnc2n(C)c1=O.Cn1c(=O)c2[nH]cnc2n(C)c1=O.NCCN
property-label: IC50
measurement: Not Active
//
compound: Cn1c(=O)c2nc[nH]c2n(C)c1=O.O
property-label: IC50
measurement: Not Active
//
compound: C[n+]1ccc(-c2cc[n+](C)cc2)cc1.[Cl-].[Cl-] [PARAQUAT DICHLORIDE]
property-label: IC50
measurement: Not Active

###

Target: Cytochrome P450 2C9 (Homo sapiens, UniProt P11712); further: in other assays of this panel Not Active means under 50% inhibition at 10 µM
Sequence (P11712 whole entry): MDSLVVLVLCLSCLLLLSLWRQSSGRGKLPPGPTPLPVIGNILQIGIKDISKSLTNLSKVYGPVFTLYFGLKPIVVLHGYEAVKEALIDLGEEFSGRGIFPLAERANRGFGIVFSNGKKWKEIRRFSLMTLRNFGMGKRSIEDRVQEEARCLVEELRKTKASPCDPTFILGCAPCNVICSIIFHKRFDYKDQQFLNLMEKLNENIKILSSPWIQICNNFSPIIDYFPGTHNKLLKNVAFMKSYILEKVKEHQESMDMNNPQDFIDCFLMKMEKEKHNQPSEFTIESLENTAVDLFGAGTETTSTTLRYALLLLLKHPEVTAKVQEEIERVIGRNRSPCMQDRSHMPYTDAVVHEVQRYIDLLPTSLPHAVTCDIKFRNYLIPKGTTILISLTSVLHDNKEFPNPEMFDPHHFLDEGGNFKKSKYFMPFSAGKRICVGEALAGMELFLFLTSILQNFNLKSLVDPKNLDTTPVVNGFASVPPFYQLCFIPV
Details: bti-tn-5b1-4
property-label: Ki

molecule: CCC(=O)O[C@]1(C(=O)CCl)[C@@H](C)C[C@H]2[C@@H]3CCC4=CC(=O)C=C[C@]4(C)[C@@]3(F)[C@@H](O)C[C@@]21C [CLOBETASOL PROPIONATE]
measurement: Not Active

molecule: COc1c2occc2cc2ccc(=O)oc12
measurement: Not Active

molecule: CNCCC(Oc1ccc(C(F)(F)F)cc1)c1ccccc1 (stereo not given)
measurement: Not Active

molecule: Oc1c(Cl)cc(Cl)c(Cl)c1Cc1c(O)c(Cl)cc(Cl)c1Cl
measurement: Not Active

Okay, now this molecule:
Notebook: "COc1ccc(C(=O)N2CCCC2=O)cc1" , Ki read as Not Active

###

Target: UniProt:P11712
Conditions: bti-tn-5b1-4

compound: CC(C)NCC(O)c1ccc(NS(C)(=O)=O)cc1 (stereo not drawn)
IC50: Not Active
--
compound: CC(C(=O)O)c1ccc2oc(-c3ccc(Cl)cc3)nc2c1 (stereo not drawn)
IC50: Not Active
--
compound: CCN1CCC[C@H]1CNC(=O)c1cc(S(N)(=O)=O)ccc1OC [LEVOSULPIRIDE]
IC50: Not Active

###

Biological target: 5-hydroxytryptamine receptor 2B (Homo sapiens); further: in other assays of this panel Not Active means under 50% inhibition at 10 µM
Sequence (P41595 whole entry): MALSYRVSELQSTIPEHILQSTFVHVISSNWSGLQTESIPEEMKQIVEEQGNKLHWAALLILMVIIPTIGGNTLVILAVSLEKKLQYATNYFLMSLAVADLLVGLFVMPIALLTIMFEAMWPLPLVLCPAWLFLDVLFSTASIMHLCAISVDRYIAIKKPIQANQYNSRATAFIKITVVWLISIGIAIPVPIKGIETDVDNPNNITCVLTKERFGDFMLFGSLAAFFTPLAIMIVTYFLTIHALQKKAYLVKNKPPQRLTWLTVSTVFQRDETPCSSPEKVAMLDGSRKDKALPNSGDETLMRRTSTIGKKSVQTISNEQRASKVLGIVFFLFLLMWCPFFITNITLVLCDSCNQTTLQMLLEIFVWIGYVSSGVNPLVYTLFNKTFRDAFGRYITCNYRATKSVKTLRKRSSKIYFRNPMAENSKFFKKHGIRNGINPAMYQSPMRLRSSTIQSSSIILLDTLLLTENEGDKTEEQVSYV
Format: cell membranes, CHO-K1, Membrane
Conditions: read-out: IC50
property-label: log10(IC50) (log10 of the value in nM)
Kindly note that the scale is log10 and the underlying IC50 is in nM.

Some entries whose results are on file:
compound: C[C@@H](CO)NC(=O)[C@@H]1C=C2c3cccc4[nH]cc(c34)C[C@H]2N(C)C1 [ERGONOVINE]
log10(IC50): 0.62
//
compound: COC(=O)Nc1nc2ccc(C(=O)c3cccs3)cc2[nH]1 [NOCODAZOLE]
log10(IC50): 4.31
//
compound: N=C(N)NC(=O)Cc1c(Cl)cccc1Cl [GUANFACINE]
log10(IC50): 3.32
//
compound: Cc1c(C)c2c(c(C)c1O)CCC(C)(CN1CCN(c3cc(N4CCCC4)nc(N4CCCC4)n3)CC1)O2 (configuration not stated)
log10(IC50): 2.72
//
compound: COc1cc2nc(N3CCN(C(=O)c4ccco4)CC3)nc(N)c2cc1OC [PRAZOSIN]
log10(IC50): 3.61
//
compound: Cc1cccc(C)c1OCC(C)N (configuration not stated) [MEXILETINE]
log10(IC50): 3.06

O=c1cc(N2CCOCC2)oc2c(-c3ccccc3)cccc12 [LY-294002] on 5-hydroxytryptamine receptor 2B (Homo sapiens) gives log10(IC50) = 4.56

###

Assay: DRUGMATRIX: Sodium/nucleoside co-transporter radioligand binding (ligand: nitrobenzylthioinosine)
Format: cell membranes, Cavia porcellus, Dunkin-Hartley, Cerebral cortex, Membrane
Details: Not Active = under 50% inhibition at 10 µM
property-label: IC50

compound: CC(C)Cc1ccc([C@@H](C)C(=O)O)cc1 [(R)-IBUPROPHEN]
IC50: Not Active

compound: CC(C)Oc1ccc2c(=O)c(-c3ccccc3)coc2c1
IC50: Not Active

compound: CCn1cc(C(=O)O)c(=O)c2cnc(N3CCCC3)nc21
IC50: Not Active

compound: O=C/C=C/c1ccccc1
IC50: Not Active

compound: O=C1O[C@H]([C@@H](O)CO)C(O)=C1O
IC50: Not Active

Notebook: "CC1(C)S[C@@H]2[C@H](NC(=O)[C@H](N)c3ccccc3)C(=O)N2[C@H]1C(=O)O" , IC50 read as Not Active

Notebook: NC(=O)C[S+]([O-])C(c1ccccc1)c1ccccc1 (stereo not drawn) , IC50 read as Not Active

Notebook: COc1ccc2cc3[n+](cc2c1OC)CCc1cc2c(cc1-3)OCO2.[Cl-] [BERBERINE CHLORIDE] , IC50 read as Not Active

###

pKi: recorded values
Target: Sigma non-opioid intracellular receptor 1 (Homo sapiens, UniProt Q99720)
Sequence (Q99720 whole entry): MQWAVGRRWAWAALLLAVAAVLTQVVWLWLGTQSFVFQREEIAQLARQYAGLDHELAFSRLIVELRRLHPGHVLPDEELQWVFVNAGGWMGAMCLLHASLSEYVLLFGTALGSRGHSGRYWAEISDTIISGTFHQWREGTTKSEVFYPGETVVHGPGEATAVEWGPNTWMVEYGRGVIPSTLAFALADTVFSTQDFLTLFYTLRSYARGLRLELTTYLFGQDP
Assay: DRUGMATRIX: Sigma1 radioligand binding (ligand: [3H] Haloperidol)
Format: cell membranes, Jurkat, Membrane
Details: Not Active = under 50% inhibition at 10 µM; read-out: Ki
pKi field: float, defined as -log10 of concentration (mol/L).

molecule: CCCCNc1ccc(C(=O)OCCN(C)C)cc1 [TETRACAINE]
pKi: 6.15
--
molecule: COc1cc(N)c(Cl)cc1C(=O)NC1CCN(CCCOc2ccc(F)cc2)CC1OC (stereo not drawn) [CISAPRIDE]
pKi: 6.38

Okay, now this molecule:
Fc1ccc(C(c2ccc(F)cc2)N2CCN(C/C=C/c3ccccc3)CC2)cc1 [FLUNARIZINE] on Sigma non-opioid intracellular receptor 1 (Homo sapiens, UniProt Q99720) gives pKi = 8.00

###

Molecular target: 5-hydroxytryptamine receptor 2C (Homo sapiens, UniProt P28335)
Sequence (P28335 whole entry): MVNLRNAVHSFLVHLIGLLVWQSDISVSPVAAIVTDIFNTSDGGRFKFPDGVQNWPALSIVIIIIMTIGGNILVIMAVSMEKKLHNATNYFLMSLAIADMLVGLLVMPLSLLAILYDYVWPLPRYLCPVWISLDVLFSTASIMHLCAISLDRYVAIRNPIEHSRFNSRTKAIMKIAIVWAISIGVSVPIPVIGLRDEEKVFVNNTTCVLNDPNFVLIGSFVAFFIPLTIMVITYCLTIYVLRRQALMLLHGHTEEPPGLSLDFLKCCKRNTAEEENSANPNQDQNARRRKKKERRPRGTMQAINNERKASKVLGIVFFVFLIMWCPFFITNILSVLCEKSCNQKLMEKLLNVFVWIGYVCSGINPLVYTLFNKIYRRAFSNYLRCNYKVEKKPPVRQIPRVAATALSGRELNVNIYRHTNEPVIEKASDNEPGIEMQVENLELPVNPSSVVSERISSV
Assay: DRUGMATRIX: Serotonin (5-Hydroxytryptamine) 5-HT2C radioligand binding (ligand: [3H] Mesulergine)
Type: cell membranes, CHO-K1, Membrane
Conditions: Not Active = under 50% inhibition at 10 µM; read-out: IC50
property-label: pIC50
pIC50 field: float, defined as -log10 of concentration (mol/L).

Some entries whose results are on file:
compound-string: CN[C@H]1CC[C@@H](c2ccc(Cl)c(Cl)c2)c2ccccc21
target-system: 5-hydroxytryptamine receptor 2C (Homo sapiens, UniProt P28335)
property-label: pIC50
measurement: 5.97
//
compound-string: N=C(N)NC(=O)Cc1c(Cl)cccc1Cl
target-system: 5-hydroxytryptamine receptor 2C (Homo sapiens, UniProt P28335)
property-label: pIC50
measurement: 5.84

"O=c1cc(N2CCOCC2)oc2c(-c3ccccc3)cccc12" on 5-hydroxytryptamine receptor 2C (Homo sapiens, UniProt P28335) gives pIC50 = 6.00

###

Experiment: DRUGMATRIX: Sodium/nucleoside co-transporter radioligand binding (ligand: nitrobenzylthioinosine)
Type: cell membranes, Cavia porcellus, Dunkin-Hartley, Cerebral cortex, Membrane
Details: Not Active = under 50% inhibition at 10 µM
property-label: IC50

Some entries whose results are on file:
compound: O=c1cnn([C@@H]2O[C@H](CO)[C@@H](O)[C@H]2O)c(=O)[nH]1 [6-AZAURIDINE]
IC50: Not Active
--
compound: NCCCC(O)(P(=O)(O)O)P(=O)(O)O [ALENDRONIC ACID]
IC50: Not Active
--
compound: COC1=C(OC)C(=O)C(CCCCCCCCCCO)=C(C)C1=O [IDEBENONE]
IC50: Not Active
--
compound: Nc1ccc2c3c(cccc13)C(=O)NC2=O
IC50: Not Active
--
compound: O=C(c1ccccc1C(F)(F)F)N1CCC(Cc2ccccc2)CC1
IC50: Not Active

Notebook: Nc1ccn([C@@H]2O[C@H](CO)[C@@H](O)C2(F)F)c(=O)n1 [GEMCITABINE] , IC50 read as Not Active

Notebook: CN/C(=N\CCSCc1nc[nH]c1C)NC#N [CIMETIDINE] , IC50 read as Not Active

Notebook: COc1ccc(CCN(C)CCCC(C#N)(c2ccc(OC)c(OC)c2)C(C)C)cc1OC (stereo not drawn) , IC50 read as Not Active
